Target: Glutamate receptor 3 (Rattus norvegicus, UniProt P19492)
Sequence (P19492 whole entry, canonical isoform): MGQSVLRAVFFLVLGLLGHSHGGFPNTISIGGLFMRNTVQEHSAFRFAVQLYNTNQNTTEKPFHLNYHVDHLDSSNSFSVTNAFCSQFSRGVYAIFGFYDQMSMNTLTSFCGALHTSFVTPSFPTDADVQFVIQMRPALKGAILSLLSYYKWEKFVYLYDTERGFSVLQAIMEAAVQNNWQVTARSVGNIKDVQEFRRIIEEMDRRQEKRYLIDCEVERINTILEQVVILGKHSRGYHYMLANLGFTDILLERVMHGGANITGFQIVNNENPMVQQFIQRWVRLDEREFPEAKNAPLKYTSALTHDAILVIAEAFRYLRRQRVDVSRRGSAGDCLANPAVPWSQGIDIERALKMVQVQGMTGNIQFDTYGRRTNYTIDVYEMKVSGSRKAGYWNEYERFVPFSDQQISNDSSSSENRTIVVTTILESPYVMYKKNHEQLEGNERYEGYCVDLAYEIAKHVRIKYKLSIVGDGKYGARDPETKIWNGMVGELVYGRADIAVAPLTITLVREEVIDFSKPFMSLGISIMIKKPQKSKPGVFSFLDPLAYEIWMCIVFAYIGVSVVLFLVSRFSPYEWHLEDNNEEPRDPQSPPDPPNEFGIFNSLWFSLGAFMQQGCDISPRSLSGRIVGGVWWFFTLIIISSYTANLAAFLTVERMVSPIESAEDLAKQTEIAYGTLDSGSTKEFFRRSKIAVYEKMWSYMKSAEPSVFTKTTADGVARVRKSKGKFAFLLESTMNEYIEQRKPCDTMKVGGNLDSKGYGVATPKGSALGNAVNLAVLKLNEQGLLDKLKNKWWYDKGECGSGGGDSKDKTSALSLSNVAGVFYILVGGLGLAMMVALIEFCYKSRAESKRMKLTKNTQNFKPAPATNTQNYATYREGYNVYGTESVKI
Experiment: Displacement of [3H]AMPA from recombinant rat GluA3 receptor flop isoform expressed in sf9 insect cells
pKi: −log10 of the molar value.
Measurement name: pKi

CNCc1cccc(Cn2nnc(-c3onc(O)c3C[C@H](N)C(=O)O)n2)c1
5.07
CC(C)NCc1cccc(Cn2nnc(-c3onc(O)c3C[C@H](N)C(=O)O)n2)c1
4.80
N[C@@H](Cc1c(O)noc1-c1nnn(Cc2ccncc2)n1)C(=O)O
4.72

[P] CCNCc1cccc(Cn2nnc(-c3onc(O)c3C[C@H](N)C(=O)O)n2)c1
[Q] NCc1cccc(Cn2nnc(-c3onc(O)c3C[C@H](N)C(=O)O)n2)c1
Asked: Identify the entry with the smaller pKi: P or Q . Pick one; state its label.
Given back: P
(P: 4.65, Q: 5.82)
